System: German cockroaches
measurement notes: Knockdown test on German cockroaches by spraying an oil solution
Assay type: in vivo, German cockroach (Blattella germanica)
protocol conditions: 0.00156% (w/v) oil solution, 1.5 ml sprayed from 60 cm height, ten German cockroaches (5 male, 5 female), repeated twice
readout label: Knockdown rate (%) after 2 minutes

[[record]]
structure = "C#CCN1CC(=O)N(COC(=O)[C@@H]2[C@@H](/C=C(\\C#N)C=C)C2(C)C)C1=O"
readout_label = "Knockdown rate (%) after 2 minutes"
measurement = 95

[[record]]
structure = "C#CCN1CC(=O)N(COC(=O)[C@@H]2[C@@H](C=C(C)C)C2(C)C)C1=O"
readout_label = "Knockdown rate (%) after 2 minutes"
measurement = 45

[[record]]
structure = "C#CCN1CC(=O)N(COC(=O)[C@@H]2[C@@H](/C=C(C#N)/C=C/C)C2(C)C)C1=O"
readout_label = "Knockdown rate (%) after 2 minutes"
measurement = 100

[[record]]
structure = "C#CCN1CC(=O)N(COC(=O)[C@@H]2[C@@H](/C=C(\\C)C=C)C2(C)C)C1=O"
readout_label = "Knockdown rate (%) after 2 minutes"
measurement = 10

